Entry source: ChEMBL document CHEMBL2321648

System: Hepatitis C virus
Assay: Inhibition of N-terminal His-tagged recombinant Hepatitis C virus subtype 1b NS5B Cdelta21 RNA dependent RNA polymerase expressed in Escherichia coli by liquid scintillation counting analysis
reportedProperty: pIC50
pIC50 is a log-scale quantity: -log10 of the concentration expressed in molar.

Which measured pIC50 value corresponds to CS(=O)(=O)Nc1ccc(NC(=O)c2nn(-c3ccc([N+](=O)[O-])cc3)c3c2NS(=O)(=O)c2ccccc2-3)cc1 ?
5.11

====

Test system: Hepatitis C virus
Assay: Inhibition of N-terminal His-tagged recombinant Hepatitis C virus subtype 1b NS5B Cdelta21 RNA dependent RNA polymerase expressed in Escherichia coli at 50 uM by liquid scintillation counting analysis
inhibition at 50 µM: recorded values
Value expressed in %; do not type the unit.

CN1c2c(C(=O)Nc3ccc(NS(C)(=O)=O)cc3)nn(-c3cccc(N)c3)c2-c2ccccc2S1(=O)=O; 45.8
COC(=O)c1nn(-c2cccc(F)c2)c2c1N(C)S(=O)(=O)c1ccccc1-2; 10.6
CN1c2c(C(=O)Nc3ccc(N)cc3)nn(-c3cccc(F)c3)c2-c2ccccc2S1(=O)=O; 31.5
CS(=O)(=O)Nc1ccc(NC(=O)c2nn(-c3cccc([N+](=O)[O-])c3)c3c2NS(=O)(=O)c2ccccc2-3)cc1; 33.7

Notebook: pull reported inhibition at 50 µM for Hepatitis C virus, entry CN1c2c(C(=O)Oc3ccc(NS(C)(=O)=O)cc3)nn(-c3cccc(F)c3)c2-c2ccccc2S1(=O)=O
21.4
